For each entry below, report its solubility kinetic value.
Settings: buffer; pH 7.4; 200.0 µM

Recorded solubility kinetic, per entry:
COc1ccc(C(=O)Nc2cc(C)on2)cc1OC | 26.9 µg/mL
CC(Oc1cccc(Cl)c1)C(=O)N1CCCN(C)CC1 (centres undefined) | > 44.5 µg/mL
CC1CC(=O)Nc2ccccc2N1C(=O)Nc1ccccc1 (centres undefined) | 30.2 µg/mL
O=C(NC1CC1)c1cccc(NC(=O)c2cn3ccccc3n2)c1 | > 48.1 µg/mL

I have 8 compounds here; please give me solubility kinetic for each one.
1. CC(C)CCN1C(=O)C2(OCCCO2)c2cc(Cl)ccc21
2. Cn1c(=O)c(C(=O)NCCc2ccccc2)c(O)c2ccccc21
3. CC(NS(=O)(=O)c1ccccc1)C(=O)NCCc1ccccn1 (centres undefined)
4. O=C(NCCN1CCOCC1)c1ccc(Cl)cc1O
5. Cc1cccc(NC(=O)CN2CCSc3ccccc32)c1
6. CN1CCN(C(=O)CNC(=O)C23CC4CC(CC(C4)C2)C3)CC1
7. COc1ccc(-c2cc(C(=O)OCC(=O)N3CCCCC3)c3ccccc3n2)cc1OC
8. CC(Cc1ccccc1)N1C(=O)c2ccccc2C1=O (centres undefined)

# output
["3 µg/mL", "0.5 µg/mL", "> 50 µg/mL", "> 42.7 µg/mL", "5.2 µg/mL", "> 47.9 µg/mL", "13.8 µg/mL", "10.6 µg/mL"]

----------
Conditions: buffer; pH 7.4; 200.0 µM
For each entry below, report its solubility kinetic value.
Numbers only, in µg/mL.

O=C(Cc1cccc2ccccc12)Nc1cccnc1 | 39
O=C(Nc1cccc(NC(=O)c2ccccc2[N+](=O)[O-])c1)c1ccccc1Cl | 1.3

// below: solubility kinetic requested for another molecule
The value of solubility kinetic measured for the molecule O=C(O)C(Cc1c[nH]c2ccccc12)N1C(=O)C2C3c4ccccc4C(c4ccccc43)[C@@H]2C1=O (stereo partly specified) turned out to be 37.1

----------
Details: buffer; pH 7.4; 200.0 µM
MEASURED_PROPERTY: solubility kinetic

I have 2 compounds here; please give me solubility kinetic for each one.
1. O=C(COC(=O)CNC(=O)c1ccccc1F)NCC(F)(F)F
2. CCN1CCCC1CNC(=O)c1[nH]c2ccc(OC)cc2c1C (stereo unspecified)

# output
["> 50.4 µg/mL", "> 47.3 µg/mL"]

I have 4 compounds here; please give me solubility kinetic for each one.
1. CCOc1cccc(CN2CCC(CCC(=O)NC3CC3)CC2)c1O
2. COc1cc(CC(=O)OCC(=O)NC2CCCCCC2)cc(OC)c1OC
3. NC(=O)CCC(NC(=O)c1ccc(Cl)cc1)C(=O)O (stereo unspecified)
4. Cc1ccc(Cn2c(N3CCNCC3)nc3c2c(=O)[nH]c(=O)n3C)cc1

# output
44.4 µg/mL
> 56.9 µg/mL
> 42.7 µg/mL
51.2 µg/mL

----------
For each entry below, report its solubility kinetic value.
Conditions: buffer; pH 7.4; 200.0 µM
One number for each entry, in µg/mL.

Recorded solubility kinetic, per entry:
O=C1C2CCCCN2C(=O)N1CCCCN1CCN(c2ccc(F)cc2)CC1 (configuration not stated) | 43.5
COc1ccc(-c2noc(-c3cccs3)n2)cc1OC | 0.5
Cc1ccsc1C(=O)OC(C)C(=O)NC1CCCCC1C (configuration not stated) | 6.4
CC1(C)CC(NCCC(c2ccccc2)c2ccco2)CCO1 (configuration not stated) | 44.5
CS(=O)(=O)c1ccc(C(=O)NC2CCCc3ccccc32)cc1 (configuration not stated) | 35.2

I have 2 compounds here; please give me solubility kinetic for each one.
1. O=c1c2ccccc2[nH]c(=S)n1CCCn1ccnc1
2. OC(CCNCCc1c[nH]c2ccccc12)C(F)(F)F (configuration not stated)

# output
1. 19.4
2. 35.8

Reference for the values: PubChem BioAssay AID1996
